# Tested on: LPS-induced NO production
# Experiment: LPS-induced NO production in RAW 264.7 macrophage (Griess reaction)
# Format: cell-based, murine
# Condition Context: Mus musculus, RAW264.7; RAW 264.7 macrophage, nitrite by Griess reaction; read-out: IC50, inhibition against LPS-induced NO production
Quantity: IC50 (µM)
The answer is to be given in µM; state only the numeric part.

[[record]]
compound = "CCCCCCCCCCCCCCCCCC(=O)Oc1cc(C(=O)OC2Cc3c(O)cc(O)cc3OC2c2cc(OC(=O)CCCCCCCCCCCCCCCCC)c(O)c(OC(=O)CCCCCCCCCCCCCCCCC)c2)cc(OC(=O)CCCCCCCCCCCCCCCCC)c1O (centres unmarked) [Compound 1a, EGCG stearate]"
number = 40.7


Here is the next item to consider.
IC50 measured on O=C(O[C@@H]1Cc2c(O)cc(O)cc2O[C@@H]1c1cc(O)c(O)c(O)c1)c1cc(O)c(O)c(O)c1 [EGCG, Epigallocatechin gallate, reference compound] = 103

====

# Experiment: Metal chelation capacity (ferrozine)
# Condition Context: test compounds 1 mM ethanolic solution, FeCl2, ferrozine
Quantity: Metal chelation (%)
Report the value in % with no unit label.

[[record]]
compound = "O=C(O[C@@H]1Cc2c(O)cc(O)cc2O[C@@H]1c1cc(O)c(O)c(O)c1)c1cc(O)c(O)c(O)c1 [EGCG, Epigallocatechin gallate, reference compound]"
quantity = "Metal chelation"
number = 10.42

[[record]]
compound = "CCC=CCC=CCC=CCC=CCC=CCC=CCCC(=O)Oc1cc(C(=O)OC2Cc3c(O)cc(O)cc3OC2c2cc(OC(=O)CCC=CCC=CCC=CCC=CCC=CCC=CCC)c(O)c(OC(=O)CCC=CCC=CCC=CCC=CCC=CCC=CCC)c2)cc(OC(=O)CCC=CCC=CCC=CCC=CCC=CCC=CCC)c1O (stereo not shown)"
quantity = "Metal chelation"
number = 28.13

[[record]]
compound = "CCC=CCC=CCC=CCC=CCC=CCCCC(=O)Oc1cc(C(=O)OC2Cc3c(O)cc(O)cc3OC2c2cc(OC(=O)CCCC=CCC=CCC=CCC=CCC=CCC)c(O)c(OC(=O)CCCC=CCC=CCC=CCC=CCC=CCC)c2)cc(OC(=O)CCCC=CCC=CCC=CCC=CCC=CCC)c1O (stereo not shown)"
quantity = "Metal chelation"
number = 35.42


Continue with the compound presented below.
Record CCCCCCCCCCCCCCCCCC(=O)Oc1cc(C(=O)OC2Cc3c(O)cc(O)cc3OC2c2cc(OC(=O)CCCCCCCCCCCCCCCCC)c(O)c(OC(=O)CCCCCCCCCCCCCCCCC)c2)cc(OC(=O)CCCCCCCCCCCCCCCCC)c1O (stereo not shown) [Compound 1a, EGCG stearate] . Reported Metal chelation: 8.33

====

# Experiment: Oil/water emulsion (β-carotene/linoleate) bleaching
# Condition Context: test compounds 1 mM in ethanol, 50° C., 105 min
Marks after values point to notes of the source that are not given here.
Quantity: Inhibition of β-carotene bleaching

Please review the entries below; each comes with its answer.
[[record]]
compound = "CCC=CCC=CCC=CCC=CCC=CCCCC(=O)Oc1cc(C(=O)OC2Cc3c(O)cc(O)cc3OC2c2cc(OC(=O)CCCC=CCC=CCC=CCC=CCC=CCC)c(O)c(OC(=O)CCCC=CCC=CCC=CCC=CCC=CCC)c2)cc(OC(=O)CCCC=CCC=CCC=CCC=CCC=CCC)c1O (stereo not shown)"
result = "28.0 ± 0.17^a %"

[[record]]
compound = "O=C(O[C@@H]1Cc2c(O)cc(O)cc2O[C@@H]1c1cc(O)c(O)c(O)c1)c1cc(O)c(O)c(O)c1 [EGCG, Epigallocatechin gallate, reference compound]"
result = "7.90 ± 0.64^c %"

[[record]]
compound = "CCCCCCCCCCCCCCCCCC(=O)Oc1cc(C(=O)OC2Cc3c(O)cc(O)cc3OC2c2cc(OC(=O)CCCCCCCCCCCCCCCCC)c(O)c(OC(=O)CCCCCCCCCCCCCCCCC)c2)cc(OC(=O)CCCCCCCCCCCCCCCCC)c1O (stereo not shown) [Compound 1a, EGCG stearate]"
result = "16.8 ± 4.19^b %"


As a next step, examine the compound that follows.
Please fill in: Inhibition of β-carotene bleaching reported for CCC=CCC=CCC=CCC=CCC=CCC=CCCC(=O)Oc1cc(C(=O)OC2Cc3c(O)cc(O)cc3OC2c2cc(OC(=O)CCC=CCC=CCC=CCC=CCC=CCC=CCC)c(O)c(OC(=O)CCC=CCC=CCC=CCC=CCC=CCC=CCC)c2)cc(OC(=O)CCC=CCC=CCC=CCC=CCC=CCC=CCC)c1O (stereo not shown) = 32.1 ± 4.48^a %

====

# Experiment: TBARS formation in cooked pork model system
# Condition Context: 80 μmol/kg meat, stored at 4° C.
Marks after values point to notes of the source that are not given here.
Overview of recorded Inhibition of TBARS formation in cooked pork for various compounds

Here's what some known entries look like.
[[record]]
compound = "CCC=CCC=CCC=CCC=CCC=CCC=CCCC(=O)Oc1cc(C(=O)OC2Cc3c(O)cc(O)cc3OC2c2cc(OC(=O)CCC=CCC=CCC=CCC=CCC=CCC=CCC)c(O)c(OC(=O)CCC=CCC=CCC=CCC=CCC=CCC=CCC)c2)cc(OC(=O)CCC=CCC=CCC=CCC=CCC=CCC=CCC)c1O (centres unmarked)"
result = "78.4 ± 1.62^c %"

[[record]]
compound = "COc1ccc(O)c(C(C)(C)C)c1 [BHA, reference compound]"
result = "83.3 ± 2.34^ab %"

[[record]]
compound = "CCC=CCC=CCC=CCC=CCC=CCCCC(=O)Oc1cc(C(=O)OC2Cc3c(O)cc(O)cc3OC2c2cc(OC(=O)CCCC=CCC=CCC=CCC=CCC=CCC)c(O)c(OC(=O)CCCC=CCC=CCC=CCC=CCC=CCC)c2)cc(OC(=O)CCCC=CCC=CCC=CCC=CCC=CCC)c1O (centres unmarked)"
result = "80.5 ± 0.80^bc %"

[[record]]
compound = "O=C(O[C@@H]1Cc2c(O)cc(O)cc2O[C@@H]1c1cc(O)c(O)c(O)c1)c1cc(O)c(O)c(O)c1 [EGCG, Epigallocatechin gallate, reference compound]"
result = "71.9 ± 1.56^d %"


Short answer for CCCCCCCCCCCCCCCCCC(=O)Oc1cc(C(=O)OC2Cc3c(O)cc(O)cc3OC2c2cc(OC(=O)CCCCCCCCCCCCCCCCC)c(O)c(OC(=O)CCCCCCCCCCCCCCCCC)c2)cc(OC(=O)CCCCCCCCCCCCCCCCC)c1O (centres unmarked) [Compound 1a, EGCG stearate] : Inhibition of TBARS formation in cooked pork was 86.3 ± 2.10^a %

====

Entries and their % incorporation into liposomes values follow.
# Experiment: Incorporation into liposomes
# Format: physicochemical
# Condition Context: 500 μM in ethanol added to MLV, 20 min, 37° C.
Your answer should be a plain number; it is taken to be in %.

These recorded examples may help you get a feel for the data.
[[record]]
compound = "CCC=CCC=CCC=CCC=CCC=CCCCC(=O)Oc1cc(C(=O)OC2Cc3c(O)cc(O)cc3OC2c2cc(OC(=O)CCCC=CCC=CCC=CCC=CCC=CCC)c(O)c(OC(=O)CCCC=CCC=CCC=CCC=CCC=CCC)c2)cc(OC(=O)CCCC=CCC=CCC=CCC=CCC=CCC)c1O (stereo not shown)"
number = 71.81

[[record]]
compound = "CCC=CCC=CCC=CCC=CCC=CCC=CCCC(=O)Oc1cc(C(=O)OC2Cc3c(O)cc(O)cc3OC2c2cc(OC(=O)CCC=CCC=CCC=CCC=CCC=CCC=CCC)c(O)c(OC(=O)CCC=CCC=CCC=CCC=CCC=CCC=CCC)c2)cc(OC(=O)CCC=CCC=CCC=CCC=CCC=CCC=CCC)c1O (stereo not shown)"
number = 80.91

[[record]]
compound = "CCCCCCCCCCCCCCCCCC(=O)Oc1cc(C(=O)OC2Cc3c(O)cc(O)cc3OC2c2cc(OC(=O)CCCCCCCCCCCCCCCCC)c(O)c(OC(=O)CCCCCCCCCCCCCCCCC)c2)cc(OC(=O)CCCCCCCCCCCCCCCCC)c1O (stereo not shown) [Compound 1a, EGCG stearate]"
number = 91.19


Entry under test: O=C(O[C@@H]1Cc2c(O)cc(O)cc2O[C@@H]1c1cc(O)c(O)c(O)c1)c1cc(O)c(O)c(O)c1 [EGCG, Epigallocatechin gallate, reference compound] . Its % incorporation into liposomes was 65.17

====

In this section we review reported ORAC values for a set of compounds.
# Experiment: ORAC (Oxygen Radical Absorbance Capacity) assay for lipophilic antioxidants
# Condition Context: samples 0.25 μM, 7% RMCD, fluorescein probe
Dear colleague, please return just the value in mol trolox eq./mol, with no unit written.

[[record]]
compound = "CCCCCCCCCCCCCCCCCC(=O)Oc1cc(C(=O)OC2Cc3c(O)cc(O)cc3OC2c2cc(OC(=O)CCCCCCCCCCCCCCCCC)c(O)c(OC(=O)CCCCCCCCCCCCCCCCC)c2)cc(OC(=O)CCCCCCCCCCCCCCCCC)c1O (stereo not shown) [Compound 1a, EGCG stearate]"
number = 51.56

[[record]]
compound = "CCC=CCC=CCC=CCC=CCC=CCCCC(=O)Oc1cc(C(=O)OC2Cc3c(O)cc(O)cc3OC2c2cc(OC(=O)CCCC=CCC=CCC=CCC=CCC=CCC)c(O)c(OC(=O)CCCC=CCC=CCC=CCC=CCC=CCC)c2)cc(OC(=O)CCCC=CCC=CCC=CCC=CCC=CCC)c1O (stereo not shown)"
number = 81.52


Given item O=C(O[C@@H]1Cc2c(O)cc(O)cc2O[C@@H]1c1cc(O)c(O)c(O)c1)c1cc(O)c(O)c(O)c1 [EGCG, Epigallocatechin gallate, reference compound] , the value recorded as its ORAC is 14.97

ORAC for CCC=CCC=CCC=CCC=CCC=CCC=CCCC(=O)Oc1cc(C(=O)OC2Cc3c(O)cc(O)cc3OC2c2cc(OC(=O)CCC=CCC=CCC=CCC=CCC=CCC=CCC)c(O)c(OC(=O)CCC=CCC=CCC=CCC=CCC=CCC=CCC)c2)cc(OC(=O)CCC=CCC=CCC=CCC=CCC=CCC=CCC)c1O (stereo not shown) is 84.70

Hello, the source for this data is patent US9018248B2, in case you need it.
